This listing pairs compounds with measured Relative activity (%) at concentration of 25%.
# Test system: recombinant lipase (Bacillus sphaericus 205y lipase expressed in E. coli)
# Assay: Effect of organic solvents on crude recombinant lipase activity (organic solvent-tolerant test)
# Format: biochemical
# Experimental parameters: 25% (v/v) solvent (1 ml solvent/3 ml crude enzyme), 30 min, 37° C., shaking; relative to non-solvent control
Please state the figure in %; there is no need to write the unit.

Consider the following illustrative entries.
compound="C[S+](C)[O-] [Dimethyl sulfoxide]" assay_system="recombinant lipase (Bacillus sphaericus 205y lipase expressed in E. coli)" unit_text=% value_measured=10
compound=CC#N assay_system="recombinant lipase (Bacillus sphaericus 205y lipase expressed in E. coli)" unit_text=% value_measured=0
compound=CCCCCCCCCCCCCCCC assay_system="recombinant lipase (Bacillus sphaericus 205y lipase expressed in E. coli)" unit_text=% value_measured=0
compound=CCCCCC assay_system="recombinant lipase (Bacillus sphaericus 205y lipase expressed in E. coli)" unit_text=% value_measured=110

Now consider a different compound.
Query: Report Relative activity (%) at concentration of 25% for Cc1ccc(C)cc1
Reply: 90
